- System: tobacco budworm (Heliothis virescens)
- MEASUREMENT_PROTOCOL: Insecticidal test for tobacco budworm (cotton cotyledon leaf-disc dip)
- Type: in vivo
- CONDITION_INFO: Heliothis virescens, 120 h; 400 ppm, cotton cotyledon leaf-dip, 2nd instar larvae, 5 days; read-out: TBW: activity at 400 ppm against tobacco budworm (% Control rating)
What pest or weed control at 400 ppm was measured for each of the following?

Fill in the recorded pest or weed control at 400 ppm for this compound, with tobacco budworm (Heliothis virescens) as test system: Cn1nc(-c2c(F)cccc2Cl)nc1-c1ccc(C#Cc2ccc(C(F)(F)F)cc2)c(Cl)c1Cl [Compound 94] 60 to 69%

Fill in the recorded pest or weed control at 400 ppm for this compound, with tobacco budworm (Heliothis virescens) as test system: Cn1nc(-c2c(F)cccc2Cl)nc1-c1sc(C#C[Si](C)(C)C)c(Cl)c1Cl [Compound 1] 90 to 100%

Fill in the recorded pest or weed control at 400 ppm for this compound, with tobacco budworm (Heliothis virescens) as test system: Cn1nc(-c2c(F)cccc2Cl)nc1-c1sc(C#Cc2ccccc2)c(Cl)c1Cl [Compound 4] < 50%

Fill in the recorded pest or weed control at 400 ppm for this compound, with tobacco budworm (Heliothis virescens) as test system: CCN(CC)c1ncc(C#Cc2sc(-c3nc(-c4c(F)cccc4Cl)nn3C)c(Cl)c2Cl)cn1 [Compound 41] 60 to 69%

Fill in the recorded pest or weed control at 400 ppm for this compound, with tobacco budworm (Heliothis virescens) as test system: Cn1nc(-c2c(F)cccc2Cl)nc1-c1sc(C#CC(C)(C)C)c(Cl)c1Cl [Compound 3] 60 to 69%

* * *

- Tested on: cotton aphid (Aphis gossvpii)
- MEASUREMENT_PROTOCOL: Insecticidal test for cotton aphid (squash cotyledon spray)
- Type: in vivo
- CONDITION_INFO: 50 ppm spray on infested squash cotyledons, 3 days, population reduction versus untreated
PROPERTY_NAME: CA: activity at 50 ppm against cotton aphid (% Control rating)

Worked examples, 4 molecules total:
{"SMILES_TEXT": "COc1ccc(C#Cc2ccc(-c3nc(-c4c(Cl)cncc4Cl)nn3C)cc2)cc1", "VALUE_REPORTED": "D (60-69)"}
{"SMILES_TEXT": "Cn1nc(-c2c(F)cccc2Cl)nc1-c1sc(C#Cc2ccc(C(F)(F)F)cn2)c(Cl)c1Cl", "VALUE_REPORTED": "F (less than 50)"}
{"SMILES_TEXT": "Cc1cc(F)ccc1C#Cc1sc(-c2nc(-c3c(F)cccc3Cl)nn2C)c(Cl)c1Cl", "VALUE_REPORTED": "D (60-69)"}
{"SMILES_TEXT": "Cc1cccc(C#Cc2sc(-c3nc(-c4c(F)cccc4Cl)nn3C)c(Cl)c2Cl)n1", "VALUE_REPORTED": "F (less than 50)"}

What does the data say about its CA: activity at 50 ppm against cotton aphid (% Control rating)? Entry: CCCc1ccc(C#Cc2sc(-c3nc(C)nn3C)c(Cl)c2Cl)cc1 F (less than 50)

* * *

- System: cotton aphid (Aphis gossvpii)
- MEASUREMENT_PROTOCOL: Insecticidal test for cotton aphid (squash cotyledon spray)
- Assay type: in vivo
- CONDITION_INFO: 72 h; 50 ppm spray on infested squash cotyledons, 3 days, population reduction versus untreated; read-out: CA: activity at 50 ppm against cotton aphid (% Control rating)
PROPERTY_NAME: pest or weed control at 50 ppm

What does the data say about its pest or weed control at 50 ppm? Entry: CCC#Cc1sc(-c2nc(-c3c(F)cccc3Cl)nn2C)c(Cl)c1Cl 80 to 89%

What does the data say about its pest or weed control at 50 ppm? Entry: C#Cc1ccc(-c2nc(-c3c(F)cccc3Cl)nn2C)c(Cl)c1Cl 80 to 89%

What does the data say about its pest or weed control at 50 ppm? Entry: CCN(CC)c1ncc(C#Cc2sc(-c3nc(-c4c(F)cccc4Cl)nn3C)c(Cl)c2Cl)cn1 < 50%

What does the data say about its pest or weed control at 50 ppm? Entry: C#Cc1sc(-c2nc(-c3c(F)cccc3Cl)nn2C)c(Cl)c1Cl 60 to 69%

What does the data say about its pest or weed control at 50 ppm? Entry: Cn1nc(-c2c(F)cccc2Cl)nc1-c1ccc(C#Cc2ccc(C(F)(F)F)cc2)c(Cl)c1Cl 80 to 89%

What does the data say about its pest or weed control at 50 ppm? Entry: Cn1nc(-c2c(F)cccc2Cl)nc1-c1sc(C#CC(C)(C)C)c(Cl)c1Cl 90 to 100%

What does the data say about its pest or weed control at 50 ppm? Entry: Cn1nc(-c2c(F)cccc2Cl)nc1-c1sc(C#C[Si](C)(C)C)c(Cl)c1Cl 50 to 59%

What does the data say about its pest or weed control at 50 ppm? Entry: Cc1nc(-c2sc(C#Cc3ccc(F)cc3)c(Cl)c2Cl)n(C)n1 < 50%

What does the data say about its pest or weed control at 50 ppm? Entry: Cn1nc(-c2c(F)cccc2Cl)nc1-c1sc(C#Cc2ccccc2)c(Cl)c1Cl 80 to 89%

What does the data say about its pest or weed control at 50 ppm? Entry: Cn1nc(-c2c(F)cccc2Cl)nc1-c1sc(C#Cc2ccc(F)cc2F)c(Cl)c1Cl < 50%
